- Tested on: Human immunodeficiency virus 1
- assay_info: Antiviral activity against HIV-1 3B
- Type: functional, organism-based
- study_conditions: Human immunodeficiency virus 1, 3B
Assign EC50 to each entry below.

- structure_smiles_string: "CCCCCCCCCCCCCCCCOP(=O)([O-])OCC[N+](C)(C)C"
  measured_target: "Human immunodeficiency virus 1"
  readout_kind: "EC50"
  reading: "10 to 330 nM"
- structure_smiles_string: "CC1(C)CC[C@]2(C(=O)O)CC[C@]3(C)C(=CC[C@@H]4[C@@]5(C)CC[C@H](O)C(C)(C)[C@@H]5CC[C@]43C)[C@@H]2C1"
  measured_target: "Human immunodeficiency virus 1"
  readout_kind: "EC50"
  reading: "10 to 330 nM"

API: the following record is the query input.
Task: Any idea what EC50 was measured for C[C@H]1[C@H](C)CC[C@]2(C(=O)O)CC[C@]3(C)C(=CC[C@@H]4[C@@]5(C)CC[C@H](O)C(C)(C)[C@@H]5CC[C@]43C)[C@H]12 ?
Result: 10 to 330 nM

----------
- Tested on: CCRF-CEM
- assay_info: Cytotoxicity against human CCRF-CEM cells assessed as reduction in cell viability
- Type: functional, cell-based
readout_kind: IC50 (µM)
Answers are plain numbers, in µM.

- structure_smiles_string: "C=C(C)[C@@H]1CC[C@]2(C(=O)NCCN)CC[C@]3(C)[C@H](CC[C@@H]4[C@@]5(C)CC[C@H](O)C(C)(C)[C@@H]5CC[C@]43C)[C@@H]12"
  IC50 / µM: 0.7

Task: Reported IC50 for C=C(C)[C@@H]1CC[C@]2(C(=O)N3CCNCC3)CC[C@]3(C)[C@H](CC[C@@H]4[C@@]5(C)CC[C@H](O)C(C)(C)[C@@H]5CC[C@]43C)[C@@H]12 : what is it?
Result: 0.8

----------
- System: Ehrlich
- assay_info: Cytotoxicity against mouse Ehrlich carcinoma cells assessed as reduction in cell viability after 48 hrs by MTT assay
- Format: functional, cell-based
readout_kind: IC50

Previously resolved entries follow.
- compound: "C=C(C)[C@@H]1CC[C@]2(C(=O)O)CC[C@]3(C)[C@H](CC[C@@H]4[C@@]5(C)CC[C@H](O)C(C)(C)[C@@H]5CC[C@]43C)[C@@H]12 [BETULINIC ACID]"
  IC50: "54 µM"
- compound: "CC(=O)O[C@H]1C(CCC[P+](c2ccccc2)(c2ccccc2)c2ccccc2)C[C@]2(C)[C@H]3CC[C@@H]4[C@H]5[C@H](C(C)C)CC[C@]5(C(=O)O)CC[C@@]4(C)[C@]3(C)CC[C@H]2C1(C)C (stereo not given in full)"
  IC50: "1.1 to 4.7 µM"
- compound: "CC(=O)O[C@H]1C(CCC[P+](c2ccccc2)(c2ccccc2)c2ccccc2)C[C@]2(C)[C@H]3CC[C@@H]4[C@H]5[C@H](C(C)C)CC[C@]5(C(=O)OCc5ccccc5)CC[C@@]4(C)[C@]3(C)CC[C@H]2C1(C)C (stereo not given in full)"
  IC50: "1.1 to 4.7 µM"
- compound: "COC(=O)[C@]12CC[C@@H](C(C)C)[C@@H]1[C@H]1CC[C@@H]3[C@@]4(C)CC(CCC[P+](c5ccccc5)(c5ccccc5)c5ccccc5)[C@@H](OC(C)=O)C(C)(C)[C@@H]4CC[C@@]3(C)[C@]1(C)CC2 (stereo not given in full)"
  IC50: "1.1 to 4.7 µM"

Task: Recorded IC50 of COC(=O)[C@]12CC[C@@H](C(C)C)[C@@H]1[C@H]1CC[C@@H]3[C@@]4(C)CC(CCC[P+](c5ccccc5)(c5ccccc5)c5ccccc5)[C@H](OC(C)=O)C(C)(C)[C@@H]4CC[C@@]3(C)[C@]1(C)CC2 (stereo not given in full) , please.
Result: 1.1 to 4.7 µM

----------
- System: CCRF-CEM
- assay_info: Cytotoxicity against human CCRF-CEM cells assessed as reduction in cell viability
- Format: functional, cell-based
pIC50: −log10 of the molar value.
Kindly state pIC50 for each of the entries shown.

Worked set:
- structure_smiles_string: "C=C(/C=N/N=C/c1ccccn1)[C@@H]1CC[C@]2(C(=O)O)CC[C@]3(C)[C@H](CC[C@@H]4[C@@]5(C)CC[C@H](O)C(C)(C)[C@@H]5CC[C@]43C)[C@@H]12"
  measured_target: "CCRF-CEM"
  pIC50: "5.32 to 5.42"
- structure_smiles_string: "C=C(/C=N/N=C/c1ccccc1O)[C@@H]1CC[C@]2(C(=O)O)CC[C@]3(C)[C@H](CC[C@@H]4[C@@]5(C)CC[C@H](O)C(C)(C)[C@@H]5CC[C@]43C)[C@@H]12"
  measured_target: "CCRF-CEM"
  pIC50: "5.32 to 5.42"

Now for another entry.
Task: Returns the measured pIC50 for the input compound. Input: C=C(/C=N/N=C/c1ccccc1[N+](=O)[O-])[C@@H]1CC[C@]2(C(=O)O)CC[C@]3(C)[C@H](CC[C@@H]4[C@@]5(C)CC[C@H](O)C(C)(C)[C@@H]5CC[C@]43C)[C@@H]12
Result: 5.32 to 5.42

Every entry's value here was drawn from ChEMBL document CHEMBL4414578.
